In this section, each of the compounds is paired with its reported IC50.
# target-desc: KDM2B (FBXL10) (Homo sapiens)
# Construct: KDM2B; BPS,; 1-650; Bac; purchased BPS Bioscience, US; host or cells: baculovirus system
# Sequence (Q8NHM5 1-650): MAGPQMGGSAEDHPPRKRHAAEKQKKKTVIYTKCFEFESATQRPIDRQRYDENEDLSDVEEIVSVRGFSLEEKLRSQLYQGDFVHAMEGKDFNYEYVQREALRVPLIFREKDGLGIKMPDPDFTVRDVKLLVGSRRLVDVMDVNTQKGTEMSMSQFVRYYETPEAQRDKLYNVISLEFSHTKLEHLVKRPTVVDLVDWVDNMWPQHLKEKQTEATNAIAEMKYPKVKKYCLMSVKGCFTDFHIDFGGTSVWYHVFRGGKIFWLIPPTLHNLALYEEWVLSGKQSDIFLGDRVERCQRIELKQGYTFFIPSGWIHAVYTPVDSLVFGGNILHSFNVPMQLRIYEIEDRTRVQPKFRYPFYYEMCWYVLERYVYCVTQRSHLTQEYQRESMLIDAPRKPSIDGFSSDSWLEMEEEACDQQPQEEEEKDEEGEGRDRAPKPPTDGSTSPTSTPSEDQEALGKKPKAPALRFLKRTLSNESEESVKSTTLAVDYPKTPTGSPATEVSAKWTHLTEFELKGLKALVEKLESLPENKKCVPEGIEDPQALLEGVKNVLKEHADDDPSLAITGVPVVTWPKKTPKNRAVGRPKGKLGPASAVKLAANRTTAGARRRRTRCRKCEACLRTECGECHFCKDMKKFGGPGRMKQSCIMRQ
# test-name: Histone lysine demethylase AlphaLISA assay, KDM2B
# Type: biochemical
# cond: AlphaLISA, in vitro; read-out: HDME Inhibition KDM2B
# Procedure: The compounds of the application, or a pharmaceutically acceptable salt, or solvate, or prodrug thereof, are tested in an in vitro AlphaLISA assay. […] After an additional period of incubation, the plates are read. The ability of compounds of the application to inhibit the histone lysine demethylase activity in vitro of different enzymes was determined. […]
reported-metric: IC50 (nM)

test-smiles	measurement
Cc1cc(C(=O)O)cc(CNCc2nncn2CCCc2ccccc2)n1	482
CCc1nnc(CNCc2cc(C(=O)O)cc(CO)n2)n1CCCc1ccccc1	27
Cc1cc(C(=O)O)cc(CNCc2ncc(CCCc3ccccc3)n2Cc2ccc(F)cc2)n1	3970
C/C=C\c1cnc(CNCc2cc(C(=O)O)cc(C)n2)n1Cc1ccc(F)cc1	117
CCc1nnc(CNCc2cc(C(=O)O)cc(C)n2)n1C/C=C/c1ccccc1	1680
